This collection of values is drawn from PubChem BioAssay (NCI).

- Test description: NCI Yeast Anticancer Drug Screen. Data for the mlh1 strain (AID 171);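 further: 0% = growth of vehicle-treated control cultures of the same strain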
- Assay context: S. cerevisiae mlh1 strain growth inhibition; at 33.0 µM; active compounds read high
This is part of a sample that, as a whole, favours compounds with a hit. Of some 79,000 tested, about 15% had one in any assay.
Recorded metric: growth inhibition (%)

[
  {
    "Compound": "O=C(NCCCCNCCCNC(=O)c1cc(-c2ccccc2)nc2ccccc12)c1cc(-c2ccccc2)nc2ccccc12",
    "Recorded metric": "growth inhibition",
    "Unit name": "%",
    "Observed": 63
  },
  {
    "Compound": "BrCC[P+](c1ccccc1)(c1ccccc1)c1ccccc1",
    "Recorded metric": "growth inhibition",
    "Unit name": "%",
    "Observed": 93
  },
  {
    "Compound": "COC1=CC(=O)C(C2(OC(C)C)OC(=O)C(Cl)=C2Cl)=CC1=O (stereo not given)",
    "Recorded metric": "growth inhibition",
    "Unit name": "%",
    "Observed": 99
  },
  {
    "Compound": "CCCCCCCCCCCCCCC(C(=O)[O-])[n+]1ccccc1 (stereo not given)",
    "Recorded metric": "growth inhibition",
    "Unit name": "%",
    "Observed": -18
  },
  {
    "Compound": "Nc1ncncc1C(C1=C(O)COC1=O)C1=C(O)COC1=O",
    "Recorded metric": "growth inhibition",
    "Unit name": "%",
    "Observed": 3
  }
]

---

- Test description: NCI Yeast Anticancer Drug Screen. Data for the wt1 strain (AID 149);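 further: 0% = growth of vehicle-treated wt1 cultures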
- Assay context: S. cerevisiae wt1 strain (SPY 50644) growth inhibition; at 3.7 µM; active compounds read high
- Protocol: Growth inhibition of yeast strains with defined genetic alterations is measured as a screen for potential anti-cancer activity. Selected strains with alterations in DNA damage repair or cell cycle control were exposed to compounds and growth inhibition was measured relative to vehicle treated controls. The strain used in this assay is wt1
This is part of a sample that, as a whole, favours compounds with a hit. Of some 79,000 tested, about 15% had one in any assay.
# growth inhibition values compiled below

[
  {
    "Compound": "[O-][n+]1c2ccc(O)cc2nc2ccc(Br)cc21",
    "growth inhibition [%]": 14
  },
  {
    "Compound": "O=C(c1ccc(Cl)cc1)C1OC12C(=O)Nc1ccccc12 (stereo unspecified)",
    "growth inhibition [%]": 25
  },
  {
    "Compound": "N#CSc1ccc(S(N)(=O)=O)cc1",
    "growth inhibition [%]": -50
  },
  {
    "Compound": "CCCCCCCCCCCCCCCCCCNC",
    "growth inhibition [%]": 17
  },
  {
    "Compound": "CC[C@@]1(O)C(=O)OCc2c1cc1n(c2=O)Cc2cc3c(N)cccc3nc2-1",
    "growth inhibition [%]": 13
  },
  {
    "Compound": "Cc1ccc(CCC2=CCCc3c2ccc2ccccc32)cc1",
    "growth inhibition [%]": -4
  }
]

---

- Test description: NCI Yeast Anticancer Drug Screen. Data for the mgt1 strain (AID 153)
- Assay context: S. cerevisiae mgt1 mutant growth inhibition; at 100.0 µM
Compounds without any hit were thinned out: in the full panel of roughly 79,000, 15% have a hit. The source made the active and inactive calls. Cut-off read from the data, not from the text of the source: active = growth inhibition above about 70%; inactive = the rest.
Possible outcomes: active, inactive

[
  {
    "Compound": "CN(Cc1cnc2nc(N)nc(N)c2n1)c1ccc(C(=O)N[C@@H](CCC(=O)O)C(=O)O)cc1",
    "Category label": "inactive"
  },
  {
    "Compound": "COc1ccc(N=C2C(=O)Nc3ccc(Br)cc32)cc1",
    "Category label": "inactive"
  },
  {
    "Compound": "CN(C)CCOc1ccc2c(c1)C/C(=C/c1ncc([N+](=O)[O-])n1C)C2=O",
    "Category label": "inactive"
  },
  {
    "Compound": "O=C(O)c1ccccc1-c1ccccc1C(=O)Nc1ccc2c(c1)Cc1ccccc1-2",
    "Category label": "active"
  },
  {
    "Compound": "COc1ccc(-c2cn(-c3ccc(I)cc3)c3ncnc(N)c23)cc1",
    "Category label": "inactive"
  },
  {
    "Compound": "c1ccc(-c2nc3cccnc3s2)cc1",
    "Category label": "inactive"
  },
  {
    "Compound": "CCOP(=O)(OCC)C(Cc1ccccc1)N=C(c1ccccc1)c1ccccc1 (stereo not drawn)",
    "Category label": "active"
  },
  {
    "Compound": "CNC(=O)OCc1c(COC(=O)NC)c(-c2ccc(-c3ccccc3)cc2)n(C)c1C",
    "Category label": "inactive"
  },
  {
    "Compound": "Nc1ncncc1C(C1=C(O)COC1=O)C1=C(O)COC1=O",
    "Category label": "inactive"
  },
  {
    "Compound": "CCNc1nnc(CSc2nc(-c3ccccc3)c(-c3ccccc3)[nH]2)s1",
    "Category label": "active"
  },
  {
    "Compound": "COC1=CC(=O)C2C(C1=O)C(c1ccc(Cl)cc1)[C@@H]2C (stereo partly drawn)",
    "Category label": "active"
  },
  {
    "Compound": "COc1ccc(O)c(/C=N\\Nc2ccccc2)c1",
    "Category label": "inactive"
  },
  {
    "Compound": "CC1=C(SCCO)C(=O)c2ccccc2C1=O",
    "Category label": "inactive"
  },
  {
    "Compound": "Cc1ccc(S/N=C\\c2ccccc2O)cc1",
    "Category label": "inactive"
  },
  {
    "Compound": "Oc1cccc2c(Cl)ccnc12",
    "Category label": "active"
  },
  {
    "Compound": "COc1cc(CC2CC(c3ccc4c(c3)OCO4)OC2=O)cc(OC)c1OC (stereo not drawn)",
    "Category label": "inactive"
  },
  {
    "Compound": "O=[N+]([O-])c1cc(CCl)ccc1CCl",
    "Category label": "active"
  },
  {
    "Compound": "COC(=O)c1cc(-c2ccc(C)cc2)[nH]c(=O)c1C#N",
    "Category label": "inactive"
  },
  {
    "Compound": "c1ccc2c(c1)NC(NC1Nc3ccccc3N1)N2",
    "Category label": "inactive"
  },
  {
    "Compound": "CC(=O)Nc1ccc(SC(C)=O)cc1",
    "Category label": "active"
  },
  {
    "Compound": "O=C(Nc1ccc(Cl)cc1)OCC#CCCl",
    "Category label": "active"
  },
  {
    "Compound": "CCOC(=O)c1cnc2cc(C(F)(F)F)ccc2c1N=[N+]=[N-]",
    "Category label": "active"
  },
  {
    "Compound": "CC1OCC2OC(C)OC(C3C4=C(CC(C)(C)CC4=O)OC4=C3C(=O)CC(C)(C)C4)C2O1 (stereo not drawn)",
    "Category label": "inactive"
  },
  {
    "Compound": "c1ccc2c(c1)c1ncccc1c1nccnc21",
    "Category label": "inactive"
  },
  {
    "Compound": "Cc1ccc(Cl)c2[nH]c(-c3ccccc3)cc(=O)c12",
    "Category label": "inactive"
  },
  {
    "Compound": "O=C(COC(=O)c1cc(O)c(O)c(O)c1)c1ccc(-c2ccccc2)cc1",
    "Category label": "inactive"
  },
  {
    "Compound": "O=C(NCCCCCCCN1CCCCCCC1)C(C1CCCCC1)C1CCCCC1",
    "Category label": "active"
  },
  {
    "Compound": "c1ccc2c(c1)sc1nc3ccncc3nc12",
    "Category label": "inactive"
  },
  {
    "Compound": "COc1cc2c3c(cccc3c1)C(=O)N(CCN(C)C)C2=O",
    "Category label": "inactive"
  },
  {
    "Compound": "CN(C)Cc1cc(N=Nc2ccc(Cl)cc2)cc(CN(C)C)c1O",
    "Category label": "inactive"
  },
  {
    "Compound": "O=C1C2C=CC1C1C(=O)OC(=O)C21 (stereo not drawn)",
    "Category label": "inactive"
  },
  {
    "Compound": "CC1=NN(c2cccc(Cl)c2)C(=O)C1",
    "Category label": "inactive"
  },
  {
    "Compound": "CCCCCCCCNC(=O)C1=C(C)NC(C)=C(C(=O)NCCCCCCCC)C1",
    "Category label": "inactive"
  },
  {
    "Compound": "O=C1c2cc([N+](=O)[O-])ccc2-c2cccc(F)c21",
    "Category label": "inactive"
  },
  {
    "Compound": "CCOC(=O)C(NC(=O)c1ccccc1)(N1CCN(c2cc3c(cc2F)c(=O)c(C(=O)O)cn3C2CC2)CC1)C(F)(F)F (stereo not drawn)",
    "Category label": "inactive"
  },
  {
    "Compound": "NNc1c(F)c(F)cc(F)c1F",
    "Category label": "inactive"
  },
  {
    "Compound": "CCN(CC)[P+](c1ccccc1O)(N(CC)CC)N(CC)CC",
    "Category label": "active"
  },
  {
    "Compound": "CCOC(=O)c1cc(-c2ccc(Cl)cc2)c([N+](=O)[O-])n1C",
    "Category label": "active"
  },
  {
    "Compound": "CCCCCCCCCCCC1=C(O)C(=O)C=C(O)C1=O",
    "Category label": "active"
  },
  {
    "Compound": "O=c1ssc2ncccc12",
    "Category label": "active"
  },
  {
    "Compound": "CCN(CC)CCNc1ccc([N+](=O)[O-])c2nc3ccc(OC)cc3c(N)c12",
    "Category label": "active"
  },
  {
    "Compound": "CCOC(=O)c1cnc2c(C(F)(F)F)cccc2c1N=[N+]=[N-]",
    "Category label": "active"
  },
  {
    "Compound": "O=C1OC(=O)C2CCCC3CCCC1C32 (stereo not drawn)",
    "Category label": "active"
  },
  {
    "Compound": "CCN(CC)C(C)(C)C(=O)/C=C/c1ccccc1",
    "Category label": "inactive"
  },
  {
    "Compound": "OCC1OC(OCC(O)C(O)C(O)C(/C=N/Nc2ccccc2)=N/Nc2ccccc2)C(O)C(O)C1O (stereo not drawn)",
    "Category label": "inactive"
  },
  {
    "Compound": "C[CH2][Sn]([CH2]C)([O]C(=O)C(OC(C)=O)c1ccccc1)[O]C(=O)C(OC(C)=O)c1ccccc1 (stereo not drawn)",
    "Category label": "active"
  },
  {
    "Compound": "C=CCC1=C(C)C(OC(=O)/C=C/c2ccccc2)CC1=O (stereo not drawn)",
    "Category label": "inactive"
  },
  {
    "Compound": "OC1(c2ccccc2)CSC2=Nc3ccccc3C3CCN1N23 (stereo not drawn)",
    "Category label": "active"
  }
]
